Each record here notes measured pKi.
SYSTEM_NAME: human CB2 (Homo sapiens)
Construct: expressed in transfected cells; host or cells: HEK-293T (transient transfection, membrane preparation)
Sequence (P34972 whole entry): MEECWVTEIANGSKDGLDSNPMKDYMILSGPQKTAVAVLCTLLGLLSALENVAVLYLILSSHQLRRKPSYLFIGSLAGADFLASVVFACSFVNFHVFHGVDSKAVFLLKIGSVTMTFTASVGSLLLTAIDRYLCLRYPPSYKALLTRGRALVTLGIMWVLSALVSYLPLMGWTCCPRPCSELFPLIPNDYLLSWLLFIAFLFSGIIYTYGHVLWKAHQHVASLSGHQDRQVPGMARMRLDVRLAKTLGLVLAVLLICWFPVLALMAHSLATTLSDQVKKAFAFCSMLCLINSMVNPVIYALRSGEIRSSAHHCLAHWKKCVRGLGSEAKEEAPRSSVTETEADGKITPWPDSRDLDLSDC
ASSAY_PROTOCOL: CB2 receptor binding assay, block of [3H]-CP 55,940 binding
MEASUREMENT_CONDITIONS: membranes of HEK-293T cells transfected with human CB2 cDNA; 1.5 nM [3H]-CP 55,940

SMILES	pKi
COc1cccc(OC)c1-c1nc2ccncn2c1Nc1ccc2c(c1)OCCO2	5.6
COc1cccc2nc(-c3c(F)ccc(O)c3Cl)c(Nc3ccc4c(c3)OCCO4)n12	8.6
Oc1cc(Cl)c(-c2nc3cccc(OCCF)n3c2Nc2ccc3c(c2)OCCO3)c(Cl)c1	7.8
COc1cccc2nc(-c3c(F)ccc(O)c3F)c(Nc3ccc4c(c3)OCCO4)n12	8.5
